# Study System: HCV NS5B RdRp genotype 1b (Hepatitis C virus genotype 1b, UniProt Q9WMX2)
# Construct: The protein was expressed with an 18 amino acid C-terminal truncation to enhance the solubility; made in house; host or cells: E. coli BL21(DE3), pET21a vector
# Sequence (Q9WMX2 2420-2992): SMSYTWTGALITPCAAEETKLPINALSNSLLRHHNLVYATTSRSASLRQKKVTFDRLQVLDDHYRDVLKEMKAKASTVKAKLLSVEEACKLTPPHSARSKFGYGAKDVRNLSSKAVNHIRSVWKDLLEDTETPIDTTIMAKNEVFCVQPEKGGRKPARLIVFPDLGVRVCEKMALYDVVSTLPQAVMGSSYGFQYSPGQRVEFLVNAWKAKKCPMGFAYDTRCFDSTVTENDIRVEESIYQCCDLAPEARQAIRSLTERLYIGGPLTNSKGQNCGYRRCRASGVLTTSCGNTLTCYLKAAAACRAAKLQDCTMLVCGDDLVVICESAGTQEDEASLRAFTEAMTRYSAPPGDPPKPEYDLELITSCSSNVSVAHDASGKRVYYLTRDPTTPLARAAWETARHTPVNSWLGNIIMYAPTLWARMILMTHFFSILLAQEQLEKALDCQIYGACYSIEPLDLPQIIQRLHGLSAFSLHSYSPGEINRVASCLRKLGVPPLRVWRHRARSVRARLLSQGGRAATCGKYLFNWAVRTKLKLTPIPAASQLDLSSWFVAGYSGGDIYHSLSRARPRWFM
# Method Notes: HCV NS5B RdRp enzyme assay (standard / modified)
# Format: biochemical
Property Measured: IC50

### Prompt Suppose we examine the compound COc1ccc2c(c1)[C@@H]1C[C@]1(C(=O)N1[C@@H]3CC[C@H]1CN(C(=O)N(C)C)C3)Cn1c-2c(C2CCCCC2)c2ccc(C(=O)NS(=O)(=O)N(C)C)cc21 ; what IC50 value has been reported?
### Response 1 to 500 nM

### Prompt Entry to check: COc1ccc2c(c1)[C@@H]1C[C@]1(C(=O)N1[C@@H]3CC[C@H]1CN(S(C)(=O)=O)C3)Cn1c-2c(C2CCCCC2)c2ccc(C(=O)NS(=O)(=O)N(C)C)cc21
### Response 1 to 500 nM

### Prompt Entry to check: COc1ccc2c(c1)C1CC1(C(=O)N1CC3CCC(C1)N3C(=O)OC(C)(C)C)Cn1c-2c(C2CCCCC2)c2ccc(C(=O)NS(=O)(=O)N(C)C)cc21 (stereo not drawn)
### Response < 20 nM

***
### Prompt Suppose we examine the compound COC(=O)c1ccc2c(C3CCCCC3)c3n(c2c1)CC1(C(=O)N2C4CCC2CN(C)C4)CC1c1c(OC(F)(F)F)cccc1-3 (stereo not drawn) ; what IC50 value has been reported?
### Response > 500 nM

### Prompt Entry to check: COc1ccc2c(c1)C1CC1(C(=O)N1CC3CCC(C1)N3C(C)C)Cn1c-2c(C2CCCCC2)c2ccc(C(=O)NS(=O)(=O)N(C)C)cc21 (stereo not drawn)
### Response < 20 nM

### Prompt Entry to check: COc1ccc2c(c1)C1CC1(C(=O)NC1CC3CCC(C1)N3C)Cn1c-2c(C2CCCCC2)c2ccc(C(=O)NS(=O)(=O)N(C)C)cc21 (stereo not drawn) [drawing 39]
### Response 1 to 500 nM

### Prompt Entry to check: CCN(C)S(=O)(=O)NC(=O)c1ccc2c(C3CCCCC3)c3n(c2c1)CC1(C(=O)N2C4CCC2CN(C)C4)CC1c1cc(OC)ccc1-3 (stereo not drawn) [drawing 96]
### Response 1 to 500 nM

### Prompt Entry to check: COc1ccc2c(c1)C1CC1(C(=O)N1C3CCC1CN(c1ccccn1)C3)Cn1c-2c(C2CCCCC2)c2ccc(C(=O)NS(=O)(=O)N(C)C)cc21 (stereo not drawn) [drawing 41]
### Response 1 to 500 nM
